Target: TNIK (Homo sapiens, UniProt Q9UKE5)
Construct: purchased Promega V4158
Sequence (Q9UKE5 1-367 limits assumed): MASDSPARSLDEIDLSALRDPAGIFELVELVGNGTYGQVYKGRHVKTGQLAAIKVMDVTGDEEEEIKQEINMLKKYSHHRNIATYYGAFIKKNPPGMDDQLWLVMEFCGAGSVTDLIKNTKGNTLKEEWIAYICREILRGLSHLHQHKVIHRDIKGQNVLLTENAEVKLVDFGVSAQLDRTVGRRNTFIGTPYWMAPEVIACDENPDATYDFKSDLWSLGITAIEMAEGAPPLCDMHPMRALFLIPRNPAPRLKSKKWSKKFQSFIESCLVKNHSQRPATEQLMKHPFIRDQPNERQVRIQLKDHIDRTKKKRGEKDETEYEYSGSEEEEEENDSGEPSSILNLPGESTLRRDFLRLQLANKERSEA
Experiment: ADP-Glo Kinase Assay, inhibition activity on TNIK
Format: biochemical
Details: read-out: TNIK
measured_endpoint: pIC50
Answers are plain numbers, as −log10 of the molar value.

Here are 3 molecules together with their reported answers.
1) O=C(Nc1ccc(-c2c[nH]cn2)c2c1C(=O)NC2)c1ccccc1	5.42
2) CN(C)c1cccc(-c2ccc(NC(=O)c3ccccc3)c3c2CNC3=O)c1	5.13
3) Cc1ccc(C(=O)Nc2ccc(Nc3ccccc3)c3c2C(=O)NC3)cc1	6.30

INPUT: Please look at this molecule and report its pIC50: CN(C)CCCNc1ccc(C(=O)Nc2ccc(-c3ccccc3O)c3c2C(=O)NC3)cc1
OUTPUT: 6.02
